# Tested on: 47 safety-related targets
# conditionInfo: read-out: ECo on 47 safety-related targets
testReadout: EC50

Exam item: Enter reported EC50 observed with 47 safety-related targets for CC(C)(C)[C@H](NC(=O)C(F)(F)F)C(=O)N1CC2(C[C@H]1C(=O)N[C@H](C#N)C[C@@H]1CCNC1=O)SCCS2 [Compound 2]
Marked response: > 100 µM

----------
# targetUnderTest: SARS-CoV-2 3CLpro (Severe acute respiratory syndrome coronavirus 2, UniProt P0DTD1)
pIC50: −log10 of the molar value.
testReadout: pIC50

Answered examples (5):
Exam item: Using the record for N#C[C@H](C[C@@H]1CCNC1=O)NC(=O)[C@@H]1CC2(CN1C(=O)[C@@H](NC(=O)C(F)(F)F)C13CC4CC(CC(C4)C1)C3)SCCS2 [Compound 23] , report its pIC50.
Marked response: > 7.00

Exam item: Sample CC(C)(C)[C@H](NC(=O)c1cccnc1)C(=O)N1CC2(C[C@H]1C(=O)N[C@H](C#N)C[C@@H]1CCNC1=O)SCCS2 [Compound 12] — what was its pIC50?
Marked response: 5.00 to 6.00

Exam item: For CC(C)(C)[C@H](NC(=O)C(F)(F)C(F)(F)F)C(=O)N1CC2(C[C@H]1C(=O)N[C@H](C#N)C[C@@H]1CCNC1=O)SCCS2 [Compound 13] , what is its reported pIC50?
Marked response: > 7.00

Exam item: I'd like to know its pIC50. The molecule in question is CC(C)(C)[C@H](NC(=O)c1ccccc1)C(=O)N1CC2(C[C@H]1C(=O)N[C@H](C#N)C[C@@H]1CCNC1=O)SCCS2 [Compound 8]
Marked response: 5.00 to 6.00

Exam item: Item under review: CC(C)(C)[C@H](NC(=O)c1c(F)c(F)c(F)c(F)c1F)C(=O)N1CC2(C[C@H]1C(=O)N[C@H](C#N)C[C@@H]1CCNC1=O)SCCS2 [Compound 20] . Reported pIC50?
Marked response: 6.00 to 7.00

Please turn your attention to the following entry.
Exam item: Which pIC50 is reported for this molecule? N#C[C@H](C[C@@H]1CCNC1=O)NC(=O)[C@@H]1CC2(CN1C(=O)[C@@H](NC(=O)C(F)(F)F)C1CCCC1)SCCS2 [Compound 14]
Marked response: > 7.00

----------
pIC50 listing for selected compounds.
# targetUnderTest: SARS-CoV-2 3CLpro (Severe acute respiratory syndrome coronavirus 2)
pIC50: −log10 of the molar value.

Worked cases, pIC50 given:
Exam item: # lookup: pIC50 of CC(C)(C)OC(=O)N[C@H](C(=O)N1CC2(C[C@H]1C(=O)N[C@H](C#N)C[C@@H]1CCNC1=O)SCCS2)C(C)(C)C
Marked response: > 7.00

Exam item: # pIC50 lookup, item CC(C)(C)[C@H](NS(=O)(=O)c1ccccc1)C(=O)N1CC2(C[C@H]1C(=O)N[C@H](C#N)C[C@@H]1CCNC1=O)SCCS2
Marked response: 5.00 to 6.00

Exam item: Name the reported pIC50 value associated with the compound CC(C)(C)[C@H](NC(=O)C(F)(F)C(F)(F)F)C(=O)N1CC2(C[C@H]1C(=O)N[C@H](C#N)C[C@@H]1CCCNC1=O)SCCS2
Marked response: > 7.00

Exam item: Consider the compound shown here: N#C[C@H](C[C@@H]1CCNC1=O)NC(=O)[C@@H]1CC2(CN1C(=O)[C@@H](NC(=O)C1(F)CC1)C1CCCC1)SCCS2 What is its recorded pIC50?
Marked response: > 7.00

Exam item: Please look up its pIC50: CC(C)(C)[C@H](NC(=O)C(F)(F)F)C(=O)N1C[C@H](Sc2ccccc2)C[C@H]1C(=O)N[C@H](C#N)C[C@@H]1CCNC1=O
Marked response: 5.00 to 6.00

Moving on to another compound below.
Exam item: I am curious: what pIC50 value has been reported for CC(C)(C)[C@H](NC(=O)c1cc(C(F)(F)F)cc(C(F)(F)F)c1)C(=O)N1CC2(C[C@H]1C(=O)N[C@H](C#N)C[C@@H]1CCNC1=O)SCCS2 ?
Marked response: 5.00 to 6.00
